Origin of the recorded values: the supplement of paper PMC5998384

- System: HeLa Kyoto;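 note: synchronized HeLa Kyoto cells (double thymidine block for G1/S, nocodazole release for mitosis), protein amounts in NP-40 versus SDS lysates quantified by mass spectrometry, three biological replicates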
- Assay summary: solubility change mitosis vs G1/S (difference of NP-40 vs SDS log2 ratios) (log2 ratio difference); higher = more soluble in mitosis
Parameter measured: solubility change mitosis (log2)

[
  {
    "Sequence code": "MAKTYDYLFKLLLIGDSGVGKTCLLFRFSEDAFNTTFISTIGIDFKIRTIELDGKKIKLQIWDTAGQERFRTITTAYYRGAMGIMLVYDITNEKSFDNIKNWIRNIEEHASSDVERMILGNKCDMNDKRQVSKERGEKLAIDYGIKFLETSAKSSANVEEAFFTLARDIMTKLNRKMNDSNSAGAGGPVKITENRSKKTSFFRCSLL [RAB8B]",
    "Parameter measured": "solubility change mitosis (log2)",
    "Recorded measurement": -0.0727
  },
  {
    "Sequence code": "MAAGGRMEDGSLDITQSIEDDPLLDAQLLPHHSLQAHFRPRFHPLPTVIIVNLLWFIHLVFVVLAFLTGVLCSYPNPNEDKCPGNYTNPLKVQTVIILGKVILWILHLLLECYIQYHHSKIRNRGYNLIYRSTRHLKRLALMIQSSGNTVLLLILCMQHSFPEPGRLYLDLILAILALELICSLICLLIYTVKIRRFNKAKPEPDILEEEKIYAYPSNITSETGFRTISSLEEIVEKQGDTIEYLKRHNALLSKRLLALTSSDLGCQPSRT [TMEM192]",
    "Parameter measured": "solubility change mitosis (log2)",
    "Recorded measurement": -0.241
  },
  {
    "Sequence code": "MEKIPVSAFLLLVALSYTLARDTTVKPGAKKDTKDSRPKLPQTLSRGWGDQLIWTQTYEEALYKSKTSNKPLMIIHHLDECPHSQALKKVFAENKEIQKLAEQFVLLNLVYETTDKHLSPDGQYVPRIMFVDPSLTVRADITGRYSNRLYAYEPADTALLLDNMKKALKLLKTEL [AGR2]",
    "Parameter measured": "solubility change mitosis (log2)",
    "Recorded measurement": 0.3
  },
  {
    "Sequence code": "MSIFTPTNQIRLTNVAVVRMKRAGKRFEIACYKNKVVGWRSGVEKDLDEVLQTHSVFVNVSKGQVAKKEDLISAFGTDDQTEICKQILTKGEVQVSDKERHTQLEQMFRDIATIVADKCVNPETKRPYTVILIERAMKDIHYSVKTNKSTKQQALEVIKQLKEKMKIERAHMRLRFILPVNEGKKLKEKLKPLIKVIESEDYGQQLEIVCLIDPGCFREIDELIKKETKGKGSLEVLNLKDVEEGDEKFE [SBDS]",
    "Parameter measured": "solubility change mitosis (log2)",
    "Recorded measurement": -0.0695
  },
  {
    "Sequence code": "MASATAPAAAVPTLASPLEQLRHLAEELRLLLPRVRVGEAQETTEEFNREMFWRRLNEAAVTVSREATTLTIVFSQLPLPSPQETQKFCEQVHAAIKAFIAVYYLLPKDQGITLRKLVRGATLDIVDGMAQLMEVLSVTPTQSPENNDLISYNSVWVACQQMPQIPRDNKAAALLMLTKNVDFVKDAHEEMEQAVEECDPYSGLLNDTEENNSDNHNHEDDVLGFPSNQDLYWSEDDQELIIPCLALVRASKACLKKIRMLVAENGKKDQVAQLDDIVDISDEISPSVDDLALSIYPPMCHLTVRINSAKLVSVLKKALEITKASHVTPQPEDSWIPLLINAIDHCMNRIKELTQSELEL [CCNDBP1]",
    "Parameter measured": "solubility change mitosis (log2)",
    "Recorded measurement": -0.176
  },
  {
    "Sequence code": "MSEPIRVLVTGAAGQIAYSLLYSIGNGSVFGKDQPIILVLLDITPMMGVLDGVLMELQDCALPLLKDVIATDKEDVAFKDLDVAILVGSMPRREGMERKDLLKANVKIFKSQGAALDKYAKKSVKVIVVGNPANTNCLTASKSAPSIPKENFSCLTRLDHNRAKAQIALKLGVTANDVKNVIIWGNHSSTQYPDVNHAKVKLQGKEVGVYEALKDDSWLKGEFVTTVQQRGAAVIKARKLSSAMSAAKAICDHVRDIWFGTPEGEFVSMGVISDGNSYGVPDDLLYSFPVVIKNKTWKFVEGLPINDFSREKMDLTAKELTEEKESAFEFLSSA [MDH1]",
    "Parameter measured": "solubility change mitosis (log2)",
    "Recorded measurement": -0.111
  }
]
